- study_system: T1, Sso7d (UniProt P39476 2-64)
- T1 sequence: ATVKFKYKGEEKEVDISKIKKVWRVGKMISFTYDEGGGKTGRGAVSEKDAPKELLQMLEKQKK
- assay_procedure: fluorescence polarization; FP: 20 mM HEPES-NaOH pH 7.5, 50 mM NaCl, 1 mM DTT, 30 ul; temperature not stated; CD buffer not in material
- condition_summary: unlabelled version also purchased; blunt; self-complementary duplex, annealed from 85°C
measured_property: Kd (nM)
Return type: number; implicit unit nM.

// query Kd value for entry d(CG)6 (dsDNA) DNA 1: CGCGCGCGCGCG DNA 2: CGCGCGCGCGCG
262
